# Tested on: A498 renal
# PROTOCOL: NCI tumour cell line growth inhibition, 48 h
Values of TGI greater than or equal to 40 µM map to T; values below map to F.

Consider the following illustrative entries.
Nc1cc(S(N)(=O)=O)ccc1SSc1ccc(S(N)(=O)=O)cc1N = T
O=C1c2ccccc2-c2c1c1ccc([N+](=O)[O-])cc1c(=O)n2CCCNCCO = F
O=C1C2=C(SCCS2)C(=O)c2c(Sc3ccc(Cl)cc3)c(Sc3ccc(Cl)cc3)c(Sc3ccc(Cl)cc3)c(Sc3ccc(Cl)cc3)c21 = T

Input: Entry Clc1ccc(CNc2nccc(-c3cnn4ncccc34)n2)cc1 : is its TGI no less than 40 µM?
Output: F

Input: Entry Cc1ncc(CCl)c(CCl)c1O : is its TGI no less than 40 µM?
Output: T

Input: Entry Cc1ccc2c(C(=O)c3c(C)n(CCN4CCOCC4)c4ccccc34)cccc2c1 : is its TGI no less than 40 µM?
Output: T

Input: Entry COc1cc(F)c(/C=C/c2cc(/C=C/c3cc(OC)c(OC)cc3F)n(-c3cc(F)cc(F)c3)n2)cc1OC : is its TGI no less than 40 µM?
Output: F

Input: Entry CC1(C)CC([P+](c2ccccc2)(c2ccccc2)c2ccccc2)=NN1 : is its TGI no less than 40 µM?
Output: F

These data points were gathered from PubChem BioAssay (NCI).
